Target: KRas G12D mutant (Homo sapiens, UniProt P01116, G12D)
Construct: fused on or other part: His tag, used for capture on nickel-coated plates
Test: Ras GTP binding domain inhibition assay (Cy3-GTP/Cy5-GTP competition)
Conditions: 20 μM; without SOS (Table 7A); read-out: KRas G12D mutant: % inh.
List of inhibition at 20 µM values.

COCCNC(=O)c1sc2nc(-c3nccn3C)nc(N[C@H]3C[C@@H](OC)C3)c2c1-c1ccccc1 [drawing 921]	51 to 75%
COc1cccc(-c2sc3nc(-c4nccn4C)nc(NC4CCC(OC)C4)c3c2C)c1F (centres unmarked) [drawing 893]	76 to 100%
CO[C@H]1C[C@@H](Nc2nc(-c3ccccn3)nc3sccc23)C1 [drawing 902]	51 to 75%
CO[C@H]1CC[C@@H](Nc2nc(-c3nc(C)cn3C)nc3sc(-c4cccc5[nH]ncc45)c(C)c23)C1 [drawing 897]	26 to 50%
CO[C@H]1C[C@@H](Nc2nc(-c3nccn3C)nc3sc(C(=O)N4CCOCC4)c(-c4ccccc4)c23)C1 [drawing 922]	51 to 75%
CCOc1cccc(Nc2nc(-c3ccccn3)nc(O)c2OC)c1 [drawing 882]	51 to 75%

[Q] # get_value(readout='inhibition at 20 µM', item= CO[C@H]1C[C@@H](Nc2nc(-c3nccn3C)nc3sc(-c4ccn(C)n4)c(C)c23)C1 [drawing 914] )
[A] 51 to 75%

[Q] # get_value(readout='inhibition at 20 µM', item= COc1c(O)nc(-c2ccccn2)nc1Oc1ccc(C(=O)N(C)C)cc1 [drawing 879] )
[A] 51 to 75%

###

Test system: KRas G12C mutant
Test: Ras GTP binding domain inhibition assay (Cy3-GTP/Cy5-GTP competition)
Parameters: species or system human
Details: 20 μM; without SOS
measured endpoint: KRas G12C mutant: % inh.

COc1ccc(-c2sc3nc(-c4nccn4C)nc(N4CCC(OC)C4)c3c2-c2ccccc2)cn1.Cl (stereo not drawn)	0 (0% inhibition)
COc1cc(-c2sc3nc(-c4nccn4C)nc(N4CCC(OC)C4)c3c2-c2ccccc2)ccn1.Cl (stereo not drawn)	C (51-75% inhibition)
CC(C)NC(=O)c1nc(-c2nccn2C)nc(O)c1O [drawing 830]	C (51-75% inhibition)
COCCn1cc(Nc2nc(-c3ccccn3)nc(OC)c2OC)cn1 [drawing 793]	A (1-25% inhibition)
COCCCNc1nc(-c2nccn2C)nc2sc(-c3ccn(C)n3)c(-c3ccccc3)c12 [drawing 866]	A (1-25% inhibition)

[Q] # get_value(readout='KRas G12C mutant: % inh.', item= Oc1nc(-c2nccn2Cc2ccccn2)nc2c(-c3ccccn3)csc12 [drawing 851] )
[A] D (76-100% inhibition)

[Q] # get_value(readout='KRas G12C mutant: % inh.', item= O=C(NC1CCCC1)c1nc(-c2ccccn2)nc(O)c1O [drawing 812] )
[A] D (76-100% inhibition)

[Q] # get_value(readout='KRas G12C mutant: % inh.', item= COC1CCN(c2nc(-c3nccn3C)nc3sc(-c4ccc(N)nc4C)c(-c4ccccc4)c23)C1.Cl (stereo not drawn) )
[A] A (1-25% inhibition)

###

List of inhibition at 20 µM values.
Target: KRas G12D mutant (Homo sapiens, UniProt P01116, G12D)
Construct: fused on or other part: His tag, used for capture on nickel-coated plates
Assay: Ras GTP binding domain inhibition assay (Cy3-GTP/Cy5-GTP competition)
Details: at 20 μM, without SOS; read-out: KRas G12D mutant: % inh.
Description: The following method was developed as specific assay for the following proteins: KRas wild type, KRas Q61H mutant, KRas G12C mutant, KRas G12D mutant, HRas wild type, Rac-1, and Rho-A. […] The small GTPases proteins: KRas wild type. KRas Q61H mutant, KRas G12C mutant, KRas G12D mutants, HRas wild type, Rac-1, and Rho-A were expressed as His-tagged proteins. In addition, the Guanosine nucleotide Exchange Factor (GEF) Sos protein (residues 556-1049) was expressed as a His-tagged protein. […]

COc1c(F)cccc1-c1sc2nc(-c3nccn3C)nc(NC3CCC(OC)C3)c2c1-c1ccccc1 (centres unmarked) [drawing 1021]	1 to 25%
COC1CCN(c2nc(-c3nccn3C)nc3sc(-c4ccnc(N(C)C)c4)c(-c4ccccc4)c23)C1 (centres unmarked) [drawing 958]	51 to 75%

[Q] # get_value(readout='inhibition at 20 µM', item= Cn1ccc(-c2sc3nc(-c4nccn4C)nc(N4CCC5(CCOC5)C4)c3c2-c2ccccc2)n1 (centres unmarked) [drawing 992] )
[A] 26 to 50%

[Q] # get_value(readout='inhibition at 20 µM', item= COc1ccc(-c2c(-c3ccn(C)n3)sc3nc(-c4nccn4C)nc(N4CCC(OC)C4)c23)cc1 (centres unmarked) [drawing 1003] )
[A] 0%

[Q] # get_value(readout='inhibition at 20 µM', item= COc1c(O)nc(-c2ccccn2)nc1Oc1ccc2ncccc2c1 [drawing 939] )
[A] 51 to 75%

[Q] # get_value(readout='inhibition at 20 µM', item= CCOC1CCN(c2nc(-c3nccn3C)nc3sc(-c4ccn(C)n4)c(-c4ccccc4)c23)C1 (centres unmarked) )
[A] 26 to 50%

[Q] # get_value(readout='inhibition at 20 µM', item= CO[C@H]1C[C@@H](Nc2nc(-c3nccn3C)nc3sc(-c4ccn(C)n4)c(C)c23)C1 [drawing 1049] )
[A] 51 to 75%

[Q] # get_value(readout='inhibition at 20 µM', item= CO[C@@H]1CCC(Nc2nc(-c3nccn3C)nc3sc(-c4ccn(C)n4)c(-c4ccccc4)c23)C1 (some centres unmarked) [drawing 994] )
[A] 26 to 50%

###

List of inhibition at 20 µM values.
Molecular target: KRas G12D mutant (Homo sapiens, UniProt P01116, G12D)
Construct: fused on or other part: His tag, used for capture on nickel-coated plates
Test: Ras GTP binding domain inhibition assay (Cy3-GTP/Cy5-GTP competition)
Conditions: 20 μM; without SOS; read-out: KRas G12D mutant: % inh.

# example entries with known answers
COCC(C)Nc1nc(-c2nccn2C)nc2sc(-c3ccn(C)n3)c(-c3ccccc3)c12 (centres unmarked) [drawing 864]	1 to 25%
COC1CCN(c2nc(-c3nccn3C)nc3sc(-c4ccn(C)n4)c(-c4ccccc4)c23)C1 (centres unmarked) [drawing 863]	1 to 25%
COC1CCN(c2nc(-c3nccn3C)nc3sc(-c4ccncc4C)c(-c4ccccc4)c23)C1.Cl (centres unmarked)	26 to 50%
COC1CCN(c2nc(-c3nccn3C)nc3sc(-c4cnc(C5CC5)o4)c(-c4ccccc4)c23)C1.Cl (centres unmarked)	51 to 75%
CCN(CC)C(=O)c1nc(-c2nccn2C)nc(O)c1O [drawing 829]	51 to 75%

[Q] # get_value(readout='inhibition at 20 µM', item= COC1CCN(c2nc(-c3nccn3C)nc3sc(-c4ccc(N)nc4C)c(-c4ccccc4)c23)C1.Cl (centres unmarked) )
[A] 1 to 25%

[Q] # get_value(readout='inhibition at 20 µM', item= COCCc1ccc(Oc2nc(-c3ccccn3)nc(O)c2OC)cc1 [drawing 814] )
[A] 51 to 75%

[Q] # get_value(readout='inhibition at 20 µM', item= COCCCNc1nc(-c2nccn2C)nc2sc(-c3ccn(C)n3)c(-c3ccc(OC)cc3)c12 [drawing 870] )
[A] 0%

###

Target: KRas G12D mutant (Homo sapiens, UniProt P01116, G12D)
Construct: fused on or other part: His tag, used for capture on nickel-coated plates
Assay: Ras GTP binding domain inhibition assay (Cy3-GTP/Cy5-GTP competition)
Settings: 20 μM; with SOS (Table 7A); read-out: KRas G12D mutant + SOS: % inh.
measured endpoint: inhibition at 20 µM

[Q] Recorded inhibition at 20 µM for COCCn1ccnc1-c1nc(O)c2scc(-c3ccc(OCC(C)C)nc3)c2n1 [drawing 898] with KRas G12D mutant (Homo sapiens, UniProt P01116, G12D), please?
[A] 51 to 75%

###

System: KRas Q61H mutant
Assay: Ras GTP binding domain inhibition assay (Cy3-GTP/Cy5-GTP competition)
Set-up: species or system human
Details: 20 μM; without SOS
measured endpoint: KRas Q61H mutant: % inh.

# example entries with known answers
COCCn1cc(-c2sc3nc(-c4nccn4C)nc(N4CCC(OC)C4)c3c2-c2ccccc2)cn1.Cl (centres unmarked)	B (26-50% inhibition)
Cn1ccnc1-c1nc(O)c(O)c(C(=O)NC2CCC2)n1 [drawing 825]	C (51-75% inhibition)
COCCNc1nc(-c2nccn2C)nc2sc(-c3cccc(OC)c3Cl)c(-c3ccccc3)c12 [drawing 872]	B (26-50% inhibition)
COC1CCN(c2nc(-c3nccn3C)nc3sc(-c4cnn(C)c4)c(-c4ccccc4)c23)C1.Cl (centres unmarked)	B (26-50% inhibition)
COCCNc1nc(-c2cn(C)cn2)nc2sc(-c3cc(OC)ccc3Cl)c(-c3ccc(OC)cc3)c12 [drawing 795]	B (26-50% inhibition)

[Q] Recorded KRas Q61H mutant: % inh. for COCC(C)Nc1nc(-c2nccn2C)nc2sc(-c3ccccc3Cl)c(-c3cscn3)c12 (centres unmarked) [drawing 854] with KRas Q61H mutant, please?
[A] C (51-75% inhibition)

[Q] Recorded KRas Q61H mutant: % inh. for CN(Cc1ccccc1)C(=O)c1nc(-c2ccccn2)nc(O)c1O [drawing 799] with KRas Q61H mutant, please?
[A] C (51-75% inhibition)
